Values compiled from patent US20240255515A1.

Target: hTERC rG4
Assay: Microscale thermophoresis (MST) binding assay
Parameters: species or system human
Settings: 50 nM FAM-labelled RNA, 150 mM KCl, read-out: Kd, binding affinity to hTERC rG4
pKd: −log10 of the molar value.
property: pKd

> print(dat)
                                  substance  measurement.target  endpoint.result
1  two pep11 domains linked by (GTGSGA)3: TKRKHPHRRKYRGTGSGAGTGSGAGTGSGATKRKHPHRRKYR (SEQ ID NO: 3) [tandem pep11]           hTERC rG4             6.35

###

Target: hTERC rG4
Test: Microscale thermophoresis (MST) binding assay
Set-up: species or system human
Details: 50 nM FAM-labelled RNA, 150 mM KCl, read-out: Kd, binding to hTERC rG4
property: Kd (µM)

> print(dat)
                                  substance  endpoint.result
1  de novo G4-binding peptide with amino acid sequence TKRKHPHRRKYR (SEQ ID NO: 1) [pep11]             1.37
